Exercise: for every item that follows, state its recorded log10(Kd).
study system: T1, soluble human FcRn (shFcRn) (human, UniProt P55899 24-297; P61769 21-119, biotinylated with Sulfo-NHS-LC-Biotin in the ELISA; amine-coupled to a CM5 chip in SPR)
T1 construct: also called biotinylated shFcRn
T1 sequence (P55899 24-297 limits assumed, chain 1 of 2): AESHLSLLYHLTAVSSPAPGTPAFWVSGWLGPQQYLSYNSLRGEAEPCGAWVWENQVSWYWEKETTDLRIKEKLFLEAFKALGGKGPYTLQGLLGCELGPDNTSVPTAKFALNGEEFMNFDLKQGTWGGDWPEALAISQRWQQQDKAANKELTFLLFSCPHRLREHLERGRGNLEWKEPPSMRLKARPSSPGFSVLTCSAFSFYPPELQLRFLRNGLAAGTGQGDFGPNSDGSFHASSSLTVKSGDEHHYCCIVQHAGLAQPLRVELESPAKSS
T1 sequence (P61769 21-119 limits assumed, chain 2 of 2): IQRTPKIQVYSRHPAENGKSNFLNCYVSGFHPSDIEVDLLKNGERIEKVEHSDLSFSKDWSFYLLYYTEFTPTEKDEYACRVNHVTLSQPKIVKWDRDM
assay overview: SPR, pH 6
Non-standard residues stand in square brackets, D forms with d. No end group written: not given here.
# log10 transformed; quantity=Kd; unit=nM

Solved cases (3 shown):
INSERT INTO assay_data (binder, measurement_type, reported_result) VALUES
  ('QRFXTGHFGXLYPXNGP (Pen4; D-Pro10; Pen14; disulfide; C-terminal amide) [Peptide No. 295]', 'log10(Kd)', 2.45),
  ('QRFXTGHFXGLYPCNGP (Pen4; D-His9; disulfide; C-terminal amide) [Peptide No. 50]', 'log10(Kd)', 2.61),
  ('RFXTGHFGXLYPC (Pen3; D-Pro9; disulfide; C-terminal amide) [Peptide No. 142]', 'log10(Kd)', 2.15);

Batch request: log10(Kd) for each of the following binders.
1. QRFVTGHFGXWYPANGP (D-Pro10; unbridged; C-terminal amide) [Peptide No. 177]
2. RFVTGHFG[dP]WYPA-NH2 (N-terminus assumed; SMILES CC(C)[C@H](NC(=O)[C@H](Cc1ccccc1)NC(=O)[C@@H](N)CCCNC(=N)N)C(=O)N[C@H](C(=O)NCC(=O)N[C@@H](Cc1c[nH]cn1)C(=O)N[C@@H](Cc1ccccc1)C(=O)NCC(=O)N1CCC[C@@H]1C(=O)N[C@@H](Cc1c[nH]c2ccccc12)C(=O)N[C@@H](Cc1ccc(O)cc1)C(=O)N1CCC[C@H]1C(=O)N[C@@H](C)C(N)=O)[C@@H](C)O) [Peptide No. 246]

Completion:
1. 3.76
2. 3.56
